Origin of measurements: patent US11566007B2

Please respond with reported pIC50 for every item in the list.
target: KRAS Q61H (Homo sapiens (Human), UniProt P01116+P62937, Q61H); test: Ras-Raf (BRAF RBD) disruption / FRET / MOA assay, KRAS Q61H; type: biochemical; conditions: Ras-Raf disruption/FRET/MOA assay; class symbols; read-out: KRAS Q61H FRET data IC50
Sequence (P01116-2 other isoform, or with tags, fused parts or gaps Q61H): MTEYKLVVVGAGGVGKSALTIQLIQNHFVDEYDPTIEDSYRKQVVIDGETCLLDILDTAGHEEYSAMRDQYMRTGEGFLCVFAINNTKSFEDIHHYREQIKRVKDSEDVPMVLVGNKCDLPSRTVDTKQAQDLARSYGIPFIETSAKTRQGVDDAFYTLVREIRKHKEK
Sequence (P62937 whole entry): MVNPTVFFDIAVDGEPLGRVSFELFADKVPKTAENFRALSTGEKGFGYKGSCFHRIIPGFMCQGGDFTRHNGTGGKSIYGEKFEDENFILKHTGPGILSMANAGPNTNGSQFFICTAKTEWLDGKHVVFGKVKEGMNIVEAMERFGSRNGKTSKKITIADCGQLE
pIC50: −log10 of the molar value.

CCn1c(-c2cccnc2[C@H](C)OC)c2c3cc(ccc31)-c1cccc(c1)C[C@H](NC(=O)[C@@H](CO[C@H]1CCN(C(=O)C#CC(C)(C)N(C)C)C1)C(C)C)C(=O)N1CCC[C@H](N1)C(=O)OCC(C)(C)C2 (atropisomer, axis not shown) [Example A585] ... 5.00 to 6.00
C=CC(=O)N1CCOC2(CCN(C(=O)N(C)[C@H](C(=O)N[C@H]3CN4CCC=C(C4)c4ccc5c(c4)c(c(-c4cccnc4[C@H](C)OC)n5CC)CC(C)(C)COC(=O)[C@@H]4CCCN(N4)C3=O)C(C)C)CC2)C1 [Example A563] ... 5.00 to 6.00
C=CC(=O)N1CC[C@H](C(=O)N(C)[C@H](C(=O)N[C@H]2Cc3cc(O)cc(c3)-c3ccc4c(c3)c(c(-c3cccc(=O)n3C(C)C)n4CC)CC(C)(C)COC(=O)[C@@H]3CCCN(N3)C2=O)C(C)C)C1 [Example A151] ... 5.00 to 6.00

Please look at the following compound next.
Can you look up the measured pIC50 of C=CC(=O)N1C[C@@H](C)N(C(=O)N(C)[C@H](C(=O)N[C@H]2Cc3nc(cs3)-c3ccc4c(c3)c(c(-c3cccnc3[C@H](C)OC)n4CC)CC(C)(C)COC(=O)[C@@H]3CCCN(N3)C2=O)C(C)C)[C@H](C)C1 (atropisomer, axis not shown) [Example A388] for me?
> 8.00

* * *

Assignment: determine reported pIC50 for the given compounds.
molecular target: KRAS WT (Homo sapiens (Human), UniProt P01116+P62937); assay: Ras-Raf (BRAF RBD) disruption / FRET / MOA assay, KRAS WT; assay type: biochemical; conditions: read-out: IC50* KRAS WT FRET data
Sequence (P01116-2 other isoform, or with tags, fused parts or gaps): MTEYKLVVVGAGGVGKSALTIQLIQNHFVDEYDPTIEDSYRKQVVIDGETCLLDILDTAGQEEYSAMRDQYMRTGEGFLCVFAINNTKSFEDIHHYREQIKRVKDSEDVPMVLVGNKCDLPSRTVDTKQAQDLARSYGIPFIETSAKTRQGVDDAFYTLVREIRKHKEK
Sequence (P62937 whole entry): as the sequence (P62937 whole entry) above
pIC50: −log10 of the molar value.

C=CC(=O)N1C[C@@H](N(C)C(=O)N(C)[C@H](C(=O)N[C@H]2Cc3nc(cs3)-c3ccc4c(c3)c(c(-c3cccnc3[C@H](C)OC)n4CC)CC(C)(C)COC(=O)[C@@H]3CCCN(N3)C2=O)C(C)C)[C@@H](C)C1 (atropisomer, axis not shown) ... 6.00 to 7.00

# batch: return pIC50 for each of the 5 compounds below
1. C=CC(=O)N1CCC(F)(C(=O)N(C)[C@H](C(=O)N[C@H]2Cc3cccc(c3)-c3ccc4c(c3)c(c(-c3cccnc3[C@H](C)OC)n4CC)CC(C)(C)COC(=O)[C@@H]3CCCN(N3)C2=O)C(C)C)CC1 (atropisomer, axis not shown)
2. C=CC(=O)N1CC(OCC(C(=O)N[C@H]2Cc3cccc(c3)-c3ccc4c(c3)c(c(-c3cccnc3[C@H](C)OC)n4CC)CC(C)(C)COC(=O)[C@@H]3CCCN(N3)C2=O)C(C)C)C1 (some centres unmarked) [Example A483]
3. CO[C@@H](C)c1ncccc1-c1c2c3cc(ccc3n1CC(F)(F)F)-c1cccc(c1)C[C@H](NC(=O)[C@@H](COC1CN(C(=O)C#CC3(C)OCCO3)C1)C(C)C)C(=O)N1CCC[C@H](N1)C(=O)OCC(C)(C)C2 (atropisomer, axis not shown)
4. CCn1c(-c2ccccc2CN(C)C)c2c3cc(ccc31)-c1cc(O)cc(c1)C[C@H](NC(=O)[C@H](C(C)C)N(C)C(=O)c1ncc(NC(=O)/C=C/CN(C)C)s1)C(=O)N1CCC[C@H](N1)C(=O)OCC(C)(C)C2 (atropisomer, axis not shown)
5. C=CC(=O)N1CC(OC[C@H](C(=O)N[C@H]2Cc3cc(O)cc(c3)-c3ccc4c(c3)c(c(-c3cccnc3COC)n4CC)CC(C)(C)COC(=O)[C@@H]3CCCN(N3)C2=O)C(C)C)C1

["6.00 to 7.00", "5.00 to 6.00", "5.00 to 6.00", "5.00 to 6.00", "5.00 to 6.00"]

Kindly give each listed record's pIC50.
1. C=CC(=O)N1CCOC2(C1)CN(C(=O)N(C)[C@H](C(=O)N[C@H]1Cc3nc(cs3)-c3ccc4c(c3)c(c(-c3cccnc3[C@H](C)OC)n4CC(F)(F)F)CC(C)(C)COC(=O)[C@@H]3CCCN(N3)C1=O)C(C)C)C2 (atropisomer, axis not shown)
2. C=CC(=O)N1CCN(C(=O)N(C)[C@H](C(=O)N[C@H]2Cc3nc(cs3)-c3ccc4c(c3)c(c(-c3cccnc3[C@H](C)OC)n4CC)CC(C)(C)COC(=O)[C@@H]3CCCN(N3)C2=O)C(C)C)CC12CC2 (atropisomer, axis not shown)

["6.00 to 7.00", "6.00 to 7.00"]
